assay.system: T1, Soluble TSHR (22-260) protein (human, UniProt P16473 22-260)
T1 construct: range 22-260
experiment.notes: SPR (Biacore T200, 25 C), antibody captured on anti-human Fc, soluble TSHR (22-260) as analyte, 1:1 fit;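 note: antibodies captured at 0.1 ug/mL on a CM5 sensor chip bearing anti-human Fc, with HBS-EP+ running buffer at pH 7.4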
measure.name: Kd (nM)

binder="TSHB-8 (antibody, V domains shown) VH: EVQLVQSGAEVKKPGESLKISCKASGYSLTDNWIGWVRQKPGKGLEWMGIIYPGDSDTRYSPSFQGQVTISADKSISTAYLQWSSLKASDTAMYYCVGLDWNYNPLRYWGQGTLVTVSS VL: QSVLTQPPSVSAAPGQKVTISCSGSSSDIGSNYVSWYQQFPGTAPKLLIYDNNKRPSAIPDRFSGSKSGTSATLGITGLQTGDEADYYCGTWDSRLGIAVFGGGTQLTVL" val=2.25
